Value source: paper PMC3794980

Molecular target: DRB1*0405 (Homo sapiens, UniProt P01903+P01911, A100R/A169T/D86S/F76Y/I96L/K127E/L162R/M171V/N62H/P40V/Q125Y/R42H/S133A/S149N/S66Y/V115G/V209L/W38E)
Experiment: biochemical
Type: binding
Where no end group is shown, it is not given here.

{"sequenceData": "EGKVVQYENLKYTVI [Envelope 126-140]", "IC50 (nM)": 90}

###

Biological target: DRB1*0405 (Homo sapiens, UniProt P01903+P01911, A100R/A169T/D86S/F76Y/I96L/K127E/L162R/M171V/N62H/P40V/Q125Y/R42H/S133A/S149N/S66Y/V115G/V209L/W38E)
Assay: biochemical
pIC50: −log10 of the molar value.

{"smilesString": "CC[C@H](C)[C@H](NC(=O)[C@H](CCCCN)NC(=O)CNC(=O)[C@H](CCC(=O)O)NC(=O)[C@@H](NC(=O)[C@H](CS)NC(=O)[C@H](CC(C)C)NC(=O)[C@H](CCCCN)NC(=O)[C@H](CCCNC(=N)N)NC(=O)[C@H](CC(C)C)NC(=O)[C@@H](NC(=O)[C@H](C)NC(=O)[C@H](CC(C)C)NC(=O)[C@H](CCC(N)=O)NC(=O)[C@@H](N)[C@@H](C)O)[C@@H](C)O)[C@@H](C)CC)C(=O)O", "pIC50": 5.20}
{"smilesString": "CC[C@H](C)[C@H](NC(=O)[C@H](CC(C)C)NC(=O)[C@H](CC(N)=O)NC(=O)[C@H](Cc1ccc(O)cc1)NC(=O)[C@H](CC(N)=O)NC(=O)[C@@H]1CCCN1)C(=O)N[C@H](C(=O)N[C@@H](CCSC)C(=O)N[C@@H](CC(=O)O)C(=O)N[C@@H](CCC(=O)O)C(=O)N[C@@H](C)C(=O)N[C@@H](Cc1c[nH]cn1)C(=O)N[C@@H](Cc1ccccc1)C(=O)N[C@H](C(=O)N[C@@H](CC(=O)O)C(=O)O)[C@@H](C)O)[C@@H](C)CC", "pIC50": 6.40}
{"smilesString": "CC(C)C[C@H](NC(=O)[C@H](CCC(=O)O)NC(=O)[C@H](CCCCN)NC(=O)[C@@H](N)CCCNC(=N)N)C(=O)N[C@@H](CC(C)C)C(=O)N[C@H](C(=O)N[C@H](C(=O)N[C@@H](Cc1ccccc1)C(=O)N[C@@H](CCCCN)C(=O)N[C@@H](CC(N)=O)C(=O)N[C@@H](C)C(=O)N[C@@H](Cc1c[nH]cn1)C(=O)N[C@@H](C)C(=O)N[C@@H](CCCCN)C(=O)N[C@@H](CCCCN)C(=O)O)[C@@H](C)O)C(C)C", "pIC50": 7.51}
{"smilesString": "CC(C)C[C@H](NC(=O)[C@@H](NC(=O)CNC(=O)[C@H](CC(N)=O)NC(=O)[C@H](CO)NC(=O)[C@H](Cc1c[nH]c2ccccc12)NC(=O)[C@H](CC(C)C)NC(=O)[C@@H](NC(=O)[C@H](Cc1c[nH]cn1)NC(=O)[C@H](CO)NC(=O)[C@H](CCCCN)NC(=O)[C@@H]1CCCN1C(=O)[C@@H](N)Cc1c[nH]c2ccccc12)[C@@H](C)O)C(C)C)C(=O)N[C@@H](CCC(=O)O)C(=O)N[C@@H](CO)C(=O)O", "pIC50": 5.35}
{"smilesString": "CSCC[C@H](NC(=O)[C@H](CCC(N)=O)NC(=O)[C@H](C)NC(=O)[C@H](Cc1ccc(O)cc1)NC(=O)[C@H](C)NC(=O)[C@H](CCCCN)NC(=O)CNC(=O)[C@H](CC(C)C)NC(=O)[C@H](CS)NC(=O)[C@H](C)NC(=O)[C@@H](NC(=O)[C@H](CCC(=O)O)NC(=O)[C@H](CCCNC(=N)N)NC(=O)[C@H](CC(C)C)NC(=O)[C@@H](N)CO)[C@@H](C)O)C(=O)N[C@@H](Cc1c[nH]c2ccccc12)C(=O)N[C@H](C(=O)O)[C@@H](C)O", "pIC50": 7.41}
{"smilesString": "CC(C)C[C@H](NC(=O)[C@H](C)NC(=O)[C@H](CC(C)C)NC(=O)[C@@H]1CCCN1)C(=O)N[C@@H](CCCCN)C(=O)N[C@@H](CCC(=O)O)C(=O)N[C@@H](Cc1ccccc1)C(=O)N[C@@H](CCCCN)C(=O)N[C@@H](CC(=O)O)C(=O)N[C@@H](Cc1ccccc1)C(=O)N[C@@H](C)C(=O)N[C@@H](C)C(=O)NCC(=O)N[C@@H](CCCNC(=N)N)C(=O)N[C@@H](CCCCN)C(=O)O", "pIC50": 5.26}
{"smilesString": "CC[C@H](C)[C@H](NC(=O)[C@H](CC(C)C)NC(=O)[C@H](CCCNC(=N)N)NC(=O)CNC(=O)[C@@H](N)CC(N)=O)C(=O)N[C@H](C(=O)N[C@@H](C)C(=O)N[C@@H](CC(N)=O)C(=O)N1CCC[C@H]1C(=O)N[C@H](C(=O)N[C@H](C(=O)N[C@H](C(=O)N[C@@H](CCCCN)C(=O)N[C@@H](CCCCN)C(=O)N[C@@H](CCC(=O)O)C(=O)O)[C@@H](C)O)C(C)C)C(C)C)[C@@H](C)O", "pIC50": 5.17}
{"smilesString": "CC[C@H](C)[C@H](NC(=O)[C@H](Cc1c[nH]c2ccccc12)NC(=O)[C@H](Cc1ccc(O)cc1)NC(=O)CNC(=O)[C@H](CCSC)NC(=O)[C@H](CC(=O)O)NC(=O)[C@H](C)NC(=O)[C@H](Cc1c[nH]cn1)NC(=O)[C@@H](NC(=O)[C@H](C)N)C(C)C)C(=O)N[C@@H](CCC(=O)O)C(=O)N[C@@H](CO)C(=O)N[C@@H](CCC(N)=O)C(=O)N[C@@H](CCCCN)C(=O)N[C@@H](CC(N)=O)C(=O)O", "pIC50": 5.49}
{"smilesString": "CSCC[C@H](NC(=O)CNC(=O)[C@H](CCCCN)NC(=O)[C@H](CC(C)C)NC(=O)[C@H](CCC(=O)O)NC(=O)[C@H](CC(C)C)NC(=O)[C@H](CCCCN)NC(=O)[C@H](CC(=O)O)NC(=O)[C@H](CCSC)NC(=O)[C@H](CCCCN)NC(=O)[C@H](CC(C)C)NC(=O)[C@H](CCCNC(=N)N)NC(=O)[C@H](CS)NC(=O)[C@H](CCCCN)NC(=O)[C@@H](N)CC(C)C)C(=O)O", "pIC50": 5.01}
